Data credit: patent US20260226066A1

test system: A549; experiment: A549 EC50 (cell assay, no method described); type: cell-based; settings: A549
Provide the recorded EC50 for the entries that follow.

Reference set (4 entries):
>  <compound>
[O-][S+](c1cnc2c(cnn2-c2cncc(-c3nnc[nH]3)c2)c1)C1CCC1 (stereo not drawn) [Compound 99B]

>  <reportedMeasurement>
≥ 1000 nM

$$$$
>  <compound>
O=C(O)c1ccc(-n2ccc3cc([S+]([O-])C4CCC4)cnc32)cc1 (single isomer, unassigned) [Compound 49A]

>  <reportedMeasurement>
≥ 1000 nM

$$$$
>  <compound>
COCCC[S+]([O-])c1cnc2c(cnn2-c2cccc(-c3nnc[nH]3)c2)c1 (stereo not drawn) [Compound 113B]

>  <reportedMeasurement>
≥ 1000 nM

$$$$
>  <compound>
CNC(=O)c1ccc(-n2ncc3cc([S+]([O-])C4CC(F)(F)C4)cnc32)cc1 (stereo not drawn) [Compound 118B]

>  <reportedMeasurement>
≥ 1000 nM

$$$$

Look up EC50 for the entries below, preserving their order.
1. Cc1cc(-c2cccc(-n3ncc4cc([S+]([O-])C5CCC(F)(F)C5)cnc43)c2)ccn1 (stereo not drawn) [Compound 11A]
2. Cc1cc(-c2cccc(-n3ncc4cc([S+]([O-])C5CCC(F)(F)C5)cnc43)c2)ccn1 (stereo not drawn) [Compound 11C]
3. [O-][S+](CCCC(F)(F)F)c1cnc2c(cnn2-c2cccc(-c3nnc[nH]3)c2)c1 (stereo not drawn) [Compound 22B]
4. CN(C)c1nnc(-c2cccc(-n3ncc4cc([S+]([O-])C5CCC5)cnc43)c2)[nH]1 (stereo not drawn) [Compound 100B]
5. CNC(=O)c1ccc(-n2ncc3cc([S+]([O-])CCC(C)C)cnc32)cc1 (stereo not drawn) [Compound 124B]

1: ≥ 1000 nM; 2: ≥ 1000 nM; 3: 100 to 1000 nM; 4: ≥ 1000 nM; 5: < 100 nM

###

tested on: A549; test: A549 EC50 (cell assay, no method described); type: cell-based; conditions: A549
reportedEndpoint: EC50

>  <molecule>
Cc1cc(-c2cccc(-n3ncc4cc([S+]([O-])C5CCC(F)(F)C5)cnc43)c2)ccn1 (stereo not drawn) [Compound 11B]

>  <reportedEndpoint>
EC50

>  <reportedMeasurement>
≥ 1000 nM

$$$$
>  <molecule>
COC(C)(C)CC[S+]([O-])c1cnc2c(cnn2-c2cccc(-c3nnc[nH]3)c2)c1 (single isomer, unassigned) [Compound 104B]

>  <reportedEndpoint>
EC50

>  <reportedMeasurement>
≥ 1000 nM

$$$$

Please report EC50 for every entry that follows.
1. CC(C)CC[S+]([O-])c1cnc2c(cnn2-c2cccc(-c3nnc[nH]3)c2)c1 (stereo not drawn) [Compound 21A]
2. CNC(=O)c1cccc(-c2cncc(-n3ncc4cc([S+]([O-])C5CCCC5)cnc43)c2)c1 (single isomer, unassigned) [Compound 16A]
3. COCCC[S+]([O-])c1cnc2c(cnn2-c2ccc3nc(N4CCOCC4)nn3c2)c1 (single isomer, unassigned) [Compound 119B]
4. [O-][S+](CCC1CC1)c1cnc2c(ccn2-c2cccc(-c3nnc[nH]3)c2)c1 (single isomer, unassigned) [Compound 51B]
5. COCC1CC([S+]([O-])c2cnc3c(cnn3-c3cccc(-c4nnc[nH]4)c3)c2)C1 (stereo not drawn) [Compound 109A]

1: ≥ 1000 nM; 2: < 100 nM; 3: ≥ 1000 nM; 4: < 100 nM; 5: ≥ 1000 nM

# batch size: 2; output EC50 per entry
1. Cc1nnc(-c2cccc(-n3ncc4cc([S+]([O-])C5CC(F)(F)C5)cnc43)c2)[nH]1 (stereo not drawn) [Compound 97A]
2. COC1CC([S+]([O-])c2cnc3c(cnn3-c3cccc(-c4nnc[nH]4)c3)c2)C1 (single isomer, unassigned) [Compound 105C]

1: 100 to 1000 nM; 2: ≥ 1000 nM

###

Provide the recorded IC50 for the entries that follow.
Target: 15-PGDH/HPGD (Homo sapiens, UniProt P15428)
Sequence (P15428 1-266): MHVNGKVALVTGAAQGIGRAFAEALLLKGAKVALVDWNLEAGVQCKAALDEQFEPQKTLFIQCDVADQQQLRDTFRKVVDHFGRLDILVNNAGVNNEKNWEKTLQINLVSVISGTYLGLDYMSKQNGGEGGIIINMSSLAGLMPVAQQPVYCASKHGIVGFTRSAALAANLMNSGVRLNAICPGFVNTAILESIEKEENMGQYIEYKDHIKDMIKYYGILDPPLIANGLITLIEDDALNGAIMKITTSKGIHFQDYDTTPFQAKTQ
Test: hPGDH inhibitor screening biochemical assay
Settings: 10 nM enzyme, fluorescence ex/em 340/485 nm

>  <molecule>
CC1CC([S+]([O-])c2cnc3c(cnn3-c3cccc(-c4nnc[nH]4)c3)c2)C1 (stereo not drawn) [Compound 120C]

>  <IC50>
< 100 nM

$$$$

Look at each molecule and report its IC50.
1. [O-][S+](c1cnc2c(cnn2-c2cccc(-c3ccnc(O)c3)c2)c1)C1CCC(F)(F)C1 (single isomer, unassigned) [Compound 3B]
2. CC(C)OC[S+]([O-])c1cnc2c(cnn2-c2cccc(-c3nnc[nH]3)c2)c1 (single isomer, unassigned) [Compound 2A]
3. [O-][S+](c1cnc2c(cnn2-c2ccc3nc(N4CCOCC4)nn3c2)c1)C1CC(F)(F)C1 (stereo not drawn) [Compound 117B]
4. O=S(=O)(c1cnc2c(ccn2-c2cccc(-c3nnc[nH]3)c2)c1)C1CCCC1
5. O=S(=O)(c1cnc2c(ccn2-c2ccc(-c3nnc[nH]3)cc2)c1)C1CCC(F)(F)CC1
6. CC(C)CC[S+]([O-])c1cnc2c(ccn2-c2ccc(C(=O)O)cc2)c1 (single isomer, unassigned) [Compound 48B]

1. < 100 nM
2. 100 to 1000 nM
3. 100 to 1000 nM
4. < 100 nM
5. < 100 nM
6. < 100 nM

List reported IC50 for each of these molecules:
1. CCCC[S+]([O-])c1cnc2c(cnn2-c2ccc(C(=O)O)cc2)c1 (stereo not drawn) [Compound 24B]
2. CC(C)CC[S+]([O-])c1cnc2c(ccn2-c2cc(F)cc(-c3nnc[nH]3)c2)c1 (single isomer, unassigned) [Compound 52B]

1: < 100 nM; 2: < 100 nM

###

Target: 15-PGDH/HPGD (Homo sapiens, UniProt P15428)
Assay: hPGDH inhibitor screening biochemical assay
Conditions: 10 nM enzyme, fluorescence ex/em 340/485 nm
From the text: A hydroxyprostaglandin dehydrogenase inhibition screening biochemical assay can be performed to assess the synthesized inhibitors provided herein. Provided herein is an exemplary biochemical assay for hPGDH inhibitor screening. […]
reportedEndpoint: IC50

Below, 2 compounds whose answers are already recorded.
>  <compound>
COCC(C)(C)C[S+]([O-])c1cnc2c(cnn2-c2cccc(-c3nnc[nH]3)c2)c1 (single isomer, unassigned) [Compound 126B]

>  <systemTested>
15-PGDH/HPGD (Homo sapiens, UniProt P15428)

>  <reportedMeasurement>
< 0.1 µM

$$$$
>  <compound>
[O-][S+](CCC1CC1)c1cnc2c(ccn2-c2cccc(-c3nnc[nH]3)c2)c1 (single isomer, unassigned) [Compound 51B]

>  <systemTested>
15-PGDH/HPGD (Homo sapiens, UniProt P15428)

>  <reportedMeasurement>
< 0.1 µM

$$$$

Could you now look at the following compound, please?
Sample COCCC[S+]([O-])c1cnc2c(ccn2-c2cccc(-c3nnc[nH]3)c2)n1 (stereo not drawn) [Compound 103A] — what was its IC50?
0.1 to 1 µM

###

Kindly supply the reported IC50 values for the records listed here.
biological target: 15-PGDH/HPGD (Homo sapiens, UniProt P15428); assay: hPGDH inhibitor screening biochemical assay; conditions: 10 nM enzyme, fluorescence ex/em 340/485 nm

Worked cases, answers included:
>  <compound>
CC(C)C[S+]([O-])c1cnc2c(ccn2-c2cccc(-c3nnc[nH]3)c2)c1 (stereo not shown) [Compound 58]

>  <IC50>
< 100 nM

$$$$
>  <compound>
Cc1nnc(-c2cccc(-n3ncc4cc([S+]([O-])C5CCC5)cnc43)c2)[nH]1 (stereo not shown) [Compound 92A]

>  <IC50>
100 to 1000 nM

$$$$
>  <compound>
COCCC[S+]([O-])c1cnc2c(cnn2-c2ccc(N3CCNC3=O)nc2)c1 (single isomer, unassigned) [Compound 116B]

>  <IC50>
≥ 1000 nM

$$$$

What value of IC50 has been recorded for this entry: COCC1(C[S+]([O-])c2cnc3c(cnn3-c3cccc(-c4nnc[nH]4)c3)c2)CC1 (stereo not shown) [Compound 122A]
< 100 nM

###

target: 15-PGDH/HPGD (Homo sapiens); assay: hPGDH inhibitor screening biochemical assay; conditions: 10 nM enzyme, fluorescence ex/em 340/485 nm
pIC50: −log10 of the molar value.
Can you tell me pIC50 for the items I'm about to list?

Some compounds with known pIC50 results, for comparison:
>  <compound>
CCCC[S+]([O-])c1cnc2c(cnn2-c2cccc(-c3nnc[nH]3)c2)c1 (centres unmarked) [Compound 43]

>  <systemTested>
15-PGDH/HPGD (Homo sapiens)

>  <pIC50>
> 7.00

$$$$
>  <compound>
[O-][S+](c1cnc2c(ccn2-c2cccc(-c3nnc[nH]3)c2)c1)C1CCCC1 (single isomer, unassigned) [Compound 59B]

>  <systemTested>
15-PGDH/HPGD (Homo sapiens)

>  <pIC50>
> 7.00

$$$$
>  <compound>
CC(C)OC[S+]([O-])c1cnc2c(cnn2-c2cccc(-c3nnc[nH]3)c2)c1 (single isomer, unassigned) [Compound 2B]

>  <systemTested>
15-PGDH/HPGD (Homo sapiens)

>  <pIC50>
> 7.00

$$$$
>  <compound>
CCCCS(=O)(=O)c1cnc2c(cnn2-c2cccc(-c3nnc[nH]3)c2)c1 [Compound 30]

>  <systemTested>
15-PGDH/HPGD (Homo sapiens)

>  <pIC50>
6.00 to 7.00

$$$$

Using the record for [O-][S+](c1cnc2c(cnn2-c2cccc(-c3ccnc(O)c3)c2)c1)C1CCC(F)(F)C1 (single isomer, unassigned) [Compound 3A] , report its pIC50.
≤ 6.00
